The following molecules have recorded IC50 on UniProt P9WQ77.
Sequence (P9WQ77 whole entry): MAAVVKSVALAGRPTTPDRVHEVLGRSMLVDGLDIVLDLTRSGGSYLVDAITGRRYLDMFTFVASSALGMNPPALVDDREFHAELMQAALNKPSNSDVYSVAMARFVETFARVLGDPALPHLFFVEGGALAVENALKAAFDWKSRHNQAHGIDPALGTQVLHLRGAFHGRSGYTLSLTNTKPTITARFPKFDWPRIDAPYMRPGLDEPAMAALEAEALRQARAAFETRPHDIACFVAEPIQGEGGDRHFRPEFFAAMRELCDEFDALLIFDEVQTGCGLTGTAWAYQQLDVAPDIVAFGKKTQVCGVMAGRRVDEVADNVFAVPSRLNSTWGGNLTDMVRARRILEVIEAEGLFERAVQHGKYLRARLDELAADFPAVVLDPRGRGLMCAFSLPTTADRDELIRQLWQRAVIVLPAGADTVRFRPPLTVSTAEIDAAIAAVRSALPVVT
Measurement label: IC50

>>> observed_measurement("N#C/C(=C\\c1ccc[nH]1)c1nc2ccccc2s1")
"17 µM"
>>> observed_measurement("N#C/C(=C\\c1ccc([N+](=O)[O-])s1)c1nc2ccccc2s1")
"54.8 µM"
>>> observed_measurement("COc1cc(/C=C(\\C#N)c2nc3ccccc3s2)ccc1O")
"7.83 µM"
>>> observed_measurement("N#C/C(=C\\c1ccc(-c2cccc(C(=O)O)c2)s1)c1nc2ccccc2s1")
"5.73 µM"
